Entries and their SI (selectivity index) PC-3
# Tested on: PC-3 (prostate cancer)
# Protocol Notes: MTT cytotoxicity assay, PC-3
# Format: cell-based
# Study Conditions: isolated compounds; IC50 HUVEC / IC50 PC-3
# Method: The human cell lines MCF-7 (breast cancer), Ca Ski (cervical cancer), and HT-29 (colon cancer) were cultured as monolayer in RPMI 1640 growth media. HUVEC (human umbilical vein endothelial cells) and PC-3 (prostate cancer) cells were cultured in DMEM. […] Cell viability was investigated using 3-(4, 5-dimethylthiazol-2-yl)-2, 5-diphenyltetrazolium bromide (MTT) assay. […] The absorbance (A) of the content of the plates was measured at 540 nm using a microplate reader. […]
Measurement Name: SI (selectivity index) PC-3

In [3]: df
Out[3]:
                                   compound          assayed_system  reported
0  C=C1CC[C@H]2C(C)(C)CCC[C@]2(C)[C@H]1CC=C(C=O)CC(=O)O (stereo in doubt)  PC-3 (prostate cancer)       1.2
1  CC1=CCCC2(C)OC2CC(=C(C)C)C(=O)C1 (stereo not drawn) [Compound 12, germacrone-4,5-epoxide]  PC-3 (prostate cancer)       1.1
2            C/C1=C\Cc2c(C)coc2C/C(C)=C/CC1  PC-3 (prostate cancer)       1.0
3  CC1=CC(=O)C(=C(C)C)C[C@H]2[C@H]1CC[C@]2(C)O  PC-3 (prostate cancer)       1.2
4  CC(=O)CC[C@@H]1[C@H]2CC(=C(C)C)C(=O)C[C@@]12C  PC-3 (prostate cancer)       1.3
5  C/C1=C\CC[C@@]2(C)O[C@@H]2CC(C)(C)/C=C/C1=O [Compound 8, zerumbone epoxide]  PC-3 (prostate cancer)       1.3
6  C=C1CC[C@H]2C(C)(C)CCC[C@]2(C)[C@H]1C/C=C(/C=O)CC(OC)OC  PC-3 (prostate cancer)       1.1
7  CC(C)=C1C/C=C(\C)CC[C@H]2O[C@@]2(C)CC1=O [Compound 15, germacrone-1,10-epoxide]  PC-3 (prostate cancer)       1.0
8  CC(C)=C1CC(=O)[C@@H](C)CC/C=C(\C)CC1=O [Compound 2, dehydrocurdione]  PC-3 (prostate cancer)       1.3

* * *

# Test system: PC-3 (prostate cancer)
# Protocol Notes: MTT cytotoxicity assay, PC-3
# Format: cell-based
# Study Conditions: isolated compounds; IC50 HUVEC / IC50 PC-3
Measurement Name: SI (selectivity index) PC-3

>>> df
                                   compound  reported
0          CC(C)=C1C/C=C(\C)CC/C=C(\C)CC1=O       1.3
1  CC1=C[C@]2(O)O[C@@]3(CC2=C(C)C)[C@@H](C)CC[C@@H]13       1.5
2        Cc1cc2oc(=O)c(C)c-2cc2c1CC[C@@H]2C       1.9
3  C=C(C)[C@@H]1CC[C@H](C)[C@]12CC(=C(C)C)C(=O)O2 [Compound 17, curcumanolide A]       1.2
4  C=C(C)C(=O)C[C@]12OC(=O)C=C(C)[C@@H]1CC[C@@H]2C [Compound 18, curcuzedoalide]       0.7
5  CC1=CCCC2(C)OC2C(=O)c2c(C)coc2C1 (centres unmarked)       1.6
6  C=C1CC(=O)C(=C(C)C)C[C@H]2[C@H]1CC[C@]2(C)O       1.2
7  C=C1CC[C@H]2C(C)(C)CCC[C@]2(C)[C@H]1C/C=C(/C=O)CC=O       1.7

* * *

# Test system: MCF-7 (breast cancer)
# Protocol Notes: cells
# Assay type: cell-based
# Study Conditions: Homo sapiens, MCF7; isolated compounds; MTT, 72 h; mean ± SD of three replicates
# Description: The human cell lines MCF-7 (breast cancer), Ca Ski (cervical cancer), and HT-29 (colon cancer) were cultured as monolayer in RPMI 1640 growth media. HUVEC (human umbilical vein endothelial cells) and PC-3 (prostate cancer) cells were cultured in DMEM. […] Cell viability was investigated using 3-(4, 5-dimethylthiazol-2-yl)-2, 5-diphenyltetrazolium bromide (MTT) assay. […] The absorbance (A) of the content of the plates was measured at 540 nm using a microplate reader. […]
Entries and their IC50
Measurement Name: IC50

>>> print(df.to_string())
                                   compound         assayed_system     reported
0  CC1=CC(=O)C(=C(C)C)C[C@H]2[C@H]1CC[C@]2(C)O [Compound 6, procurcumenol]  MCF-7 (breast cancer)   16.1 µg/mL
1  CC1=CC2C(=C(C)C)C(=O)C=C(C)C2CC1 (stereo not shown) [Compound 4, comosone II]  MCF-7 (breast cancer)  > 100 µg/mL
2  CC(C)=C1C/C=C(\C)CC/C=C(\C)CC1=O [Compound 7, germacrone]  MCF-7 (breast cancer)   59.1 µg/mL
3  CC1=CCCC2(C)OC2C(=O)c2c(C)coc2C1 (stereo not shown) [Compound 9, zederone]  MCF-7 (breast cancer)  > 100 µg/mL

* * *

# Test system: MCF-7 (breast cancer)
# Protocol Notes: cells
# Type: cell-based
# Study Conditions: Homo sapiens, MCF7; isolated compounds; MTT, 72 h; mean ± SD of three replicates
Measurement Name: IC50 (µg/mL)

>>> df
                                   compound         assayed_system  reported
0  C=C1CC[C@H]2C(C)(C)CCC[C@]2(C)[C@H]1CC=C(C=O)CC(=O)O (stereo in doubt) [Compound 16, zerumin A]  MCF-7 (breast cancer)      22.3
1  Cc1cc2oc(=O)c(C)c-2cc2c1CC[C@@H]2C [Compound 19, gweicurculactone]  MCF-7 (breast cancer)      31.2
2  C=C(C)C(=O)C[C@]12OC(=O)C=C(C)[C@@H]1CC[C@@H]2C [Compound 18, curcuzedoalide]  MCF-7 (breast cancer)      49.8
3  C=C1CC[C@H]2C(C)(C)CCC[C@]2(C)[C@H]1C/C=C(/C=O)CC(OC)OC [Compound 13, calcaratarin A]  MCF-7 (breast cancer)      62.5
4  CC1=CCCC2(C)OC2CC(=C(C)C)C(=O)C1 (centres unmarked) [Compound 12, germacrone-4,5-epoxide]  MCF-7 (breast cancer)      37.2
5  CC(C)=C1C/C=C(\C)CC[C@H]2O[C@@]2(C)CC1=O [Compound 15, germacrone-1,10-epoxide]  MCF-7 (breast cancer)      61.2
6  C=C1CC(=O)C(=C(C)C)C[C@H]2[C@H]1CC[C@]2(C)O [Compound 14, isoprocurcumenol]  MCF-7 (breast cancer)      58.8
7  C/C1=C\Cc2c(C)coc2C/C(C)=C/CC1 [Compound 11, furanodiene]  MCF-7 (breast cancer)      36.5

* * *

# Tested on: MCF-7 (breast cancer)
# Protocol Notes: cells
# Type: cell-based
# Study Conditions: Homo sapiens, MCF7; isolated compounds; MTT, 72 h; mean ± SD of three replicates
Entries and their IC50

Molecule	Operator Symbol	IC50 [µg/mL]
CC1=CC2(O)OC3(CC2=C(C)C)C(C)CCC13 (stereo not shown)	>	100
COc1cccc2c1C(=O)c1c(O)c3c(c(O)c1C2=O)C[C@@](O)(C(=O)CO)C[C@@H]3O[C@H]1C[C@H](N)[C@H](O)[C@H](C)O1 [doxorubicin, reference compound]	=	0.1
CC(=O)CC[C@@H]1[C@H]2CC(=C(C)C)C(=O)C[C@@]12C	=	8.3
CC1=C[C@]2(O)O[C@@]3(CC2=C(C)C)[C@@H](C)CC[C@@H]13	=	9.3

* * *

# Test system: MCF-7 (breast cancer)
# Protocol Notes: cells
# Assay type: cell-based
# Study Conditions: Homo sapiens, MCF7; isolated compounds; MTT, 72 h; mean ± SD of three replicates
Entries and their IC50
Measurement Name: IC50 (µg/mL)

>>> print(df.to_string())
                                   molecule  unit_label  reported
0  C=C(C)[C@@H]1CC[C@H](C)[C@]12CC(=C(C)C)C(=O)O2 [Compound 17, curcumanolide A]       µg/mL      29.8
1  CC(C)=C1CC(=O)[C@@H](C)CC/C=C(\C)CC1=O [Compound 2, dehydrocurdione]       µg/mL        33
2  C=C1CC[C@H]2C(C)(C)CCC[C@]2(C)[C@H]1C/C=C(/C=O)CC=O [Compound 1, labda-8(17),12 diene-15,16 dial]       µg/mL      16.3
3  C/C1=C\CC[C@@]2(C)O[C@@H]2CC(C)(C)/C=C/C1=O [Compound 8, zerumbone epoxide]       µg/mL      24.1
